- test-target: Bromodomain-containing protein 2 (Homo sapiens, UniProt P25440)
- Sequence (P25440 whole entry, the tested form may be a part): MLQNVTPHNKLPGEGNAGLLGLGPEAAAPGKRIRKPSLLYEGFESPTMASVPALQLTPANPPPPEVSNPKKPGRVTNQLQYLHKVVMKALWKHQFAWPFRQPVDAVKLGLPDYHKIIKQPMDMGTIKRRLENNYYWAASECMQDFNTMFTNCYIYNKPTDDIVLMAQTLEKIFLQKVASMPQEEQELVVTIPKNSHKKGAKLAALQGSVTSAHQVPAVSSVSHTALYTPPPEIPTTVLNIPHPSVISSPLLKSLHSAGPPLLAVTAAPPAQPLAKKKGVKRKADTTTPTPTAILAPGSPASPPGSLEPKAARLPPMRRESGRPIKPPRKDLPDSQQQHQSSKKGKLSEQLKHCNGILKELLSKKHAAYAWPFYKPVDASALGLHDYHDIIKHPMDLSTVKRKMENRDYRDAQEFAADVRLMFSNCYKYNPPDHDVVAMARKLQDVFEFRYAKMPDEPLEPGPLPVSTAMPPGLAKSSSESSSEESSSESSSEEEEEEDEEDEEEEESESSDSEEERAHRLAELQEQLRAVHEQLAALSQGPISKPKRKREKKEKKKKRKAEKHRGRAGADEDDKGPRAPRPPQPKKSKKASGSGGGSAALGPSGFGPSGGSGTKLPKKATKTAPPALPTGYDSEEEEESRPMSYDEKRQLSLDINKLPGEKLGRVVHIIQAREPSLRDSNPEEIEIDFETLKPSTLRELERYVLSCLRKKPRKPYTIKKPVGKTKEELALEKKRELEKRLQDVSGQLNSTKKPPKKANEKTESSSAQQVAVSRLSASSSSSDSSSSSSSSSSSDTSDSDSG
- assay-notes: Inhibition of BRD2 bromodomain 2 (348 to 455 residues) (unknown origin) extracted from Escherichia coli […] codon plus RIL cells incubated for 4 hrs by fluorescence anisotropy
# key: entry, value: IC50
Supply the numeric figure in nM, leaving out any unit text.

The examples below pair each entry with its known result.
structure-smiles-string	IC50 / nM
CCc1cc(Nc2nn(C)c3ccccc23)nc(Nc2ccc3c(c2)N(C(C)C)[C@H](C)C(=O)N3C)n1	302
Cc1cc(Nc2nn(C)c3ccccc23)nc(Nc2ccc3c(c2)N(C(C)C)[C@H](C)C(=O)N3C)n1	291

// query Quick check: IC50 of `CC(C)N1c2cc(Nc3nccc(Nc4nn(C)c5ccccc45)n3)ccc2N(C)C(=O)[C@H]1C` ?
// result 233

----------
- test-target: Bromodomain-containing protein 4 (Homo sapiens)
- assay-notes: Inhibition of BRD4 bromodomain 2 (332 to 460 residues) (unknown origin) extracted from Escherichia coli […] codon plus RIL cells incubated for 4 hrs by fluorescence anisotropy
assay-metric: pIC50
Reminder that pIC50 means the negative base-10 logarithm of the concentration expressed in mol/L.

// query Quick check: pIC50 of `CCc1cc(Nc2cccc(Cl)c2)nc(Nc2ccc3c(c2)N(C(C)C)[C@H](C)C(=O)N3C)n1` ?
// result 5.68

----------
Form: system (Histone acetyltransferase p300 (Homo sapiens)), quantity (IC50), values below.

structure-smiles-string	assay-metric	result
CCc1cc(Nc2nn(C)c3ccccc23)nc(Nc2ccc3c(c2)N(C(C)C)[C@H](C)C(=O)N3C)n1	IC50	> 1000 nM

Consider the record given below.
// query Item `Cc1cc(Nc2nn(C)c3ccccc23)nc(Nc2ccc3c(c2)N(C(C)C)[C@H](C)C(=O)N3C)n1` with Histone acetyltransferase p300 (Homo sapiens) - IC50?
// result > 1000 nM

----------
- test-target: Bromodomain-containing protein 4 (Homo sapiens, UniProt O60885)
- assay-notes: Inhibition of BRD4 bromodomain 1 (44 to 168 residues) (unknown origin) extracted from Escherichia coli […] codon plus RIL cells incubated for 4 hrs by fluorescence anisotropy
assay-metric: IC50 (nM)
Supply the numeric figure in nM, leaving out any unit text.

// query Quick check: IC50 of `CCc1cc(Nc2cccc(Cl)c2)nc(Nc2ccc3c(c2)N(C(C)C)[C@H](C)C(=O)N3C)n1` ?
// result 504

----------
- test-target: Bromodomain-containing protein 2 (Homo sapiens)
- assay-notes: Inhibition of BRD2 bromodomain 1 (67 to 200 residues) (unknown origin) extracted from Escherichia coli […] codon plus RIL cells incubated for 4 hrs by fluorescence anisotropy
# key: entry, value: IC50
Dear colleague, please send the value followed by its unit.

structure-smiles-string	test-target	IC50
Cc1cc(Nc2nn(C)c3ccccc23)nc(Nc2ccc3c(c2)N(C(C)C)[C@H](C)C(=O)N3C)n1	Bromodomain-containing protein 2 (Homo sapiens)	50.5 nM
CC(C)N1c2cc(Nc3nccc(Nc4nn(C)c5ccccc45)n3)ccc2N(C)C(=O)[C@H]1C	Bromodomain-containing protein 2 (Homo sapiens)	31.8 nM

Consider the record given below.
// query Quick check: IC50 of `CCc1cc(Nc2nn(C)c3ccccc23)nc(Nc2ccc3c(c2)N(C(C)C)[C@H](C)C(=O)N3C)n1` ?
// result 29.3 nM
